- System: SF-268 CNS
- TEST_NAME: NCI tumour cell line growth inhibition, 48 h
MEASURE: TGI

>>> df
                                   compound  measure       val
0  OCC1OC(n2cnc3c2NC=NC[C@H]3O)C(O)C1O (stereo not given in full)      TGI  > 450 µM
1  Cc1cc(C)cc(C(=N)c2ccccc2Cc2cccc3ccccc23)c1      TGI   34.9 µM
2  O=C(Nc1ccc([N+](=O)[O-])cc1)C1C(=O)C(=O)N(c2ccc([N+](=O)[O-])cc2)C1=O (stereo not given)      TGI  > 100 µM
3                   CN(C)C(=O)OCOC(=O)N(C)C      TGI  > 100 µM
4  CC(=O)O[C@@H]1C[C@]2(C(C)C)O[C@@]1(C)[C@@H]1CCC(C)=C1[C@@H]2OC(=O)/C=C/c1ccccc1      TGI  > 100 µM
5  CCCCN1C=CN2c3nc4cc(C)c(C)cc4n3C(C(=O)OC)=C(C(=O)OC)C12 (stereo not given)      TGI  > 100 µM
6  O=C1c2cc3c(cc2CC12Cc1cc4c(cc1C2=O)CCC4)CCCC3 (stereo not given)      TGI  > 100 µM
7  CSC1(CC(=O)N(C)C)C(=O)Nc2ccccc21 (stereo not given)      TGI  > 100 µM
8  CC(C)=CCS(=O)c1ccccc1NC1=CC(=O)CC(C)(C)C1 (stereo not given)      TGI  > 100 µM
9  Cc1ccc(S(=O)(=O)C2=Cc3ccc(C(F)(F)F)cc3C2(O)c2cccc(C(F)(F)F)c2)cc1 (stereo not given)      TGI   8.65 µM
